Experiment: Half life in human plasma
Format: ADME, cell-free
parameter: log10 of half-life (log10 of the value in min)
Note: values are log10 of half-life expressed in min.

Exam item: Need log10 of half-life, item CCC(=O)Oc1c(-c2ccc(O)c(O)c2)oc2cc(O)cc(O)c2c1=O
Marked response: 1.49

====

Assay: Half life in human plasma
Assay type: ADME, cell-free
Criterion: half-life strictly under 1 h. Met: class 1. Not met: class 0.

# chemical_string, group_label
data = [
    ("CC(C)C[C@H]1NC(=O)[C@H](Cc2ccccc2)NC(=O)CNC(=O)[C@@H](C)NC(=O)[C@H](Cc2ccc(O)cc2)NC(=O)/C=C\\c2ccccc2OC1=O", "class 0"),
    ("N[C@@H](CC(=O)O)C(=O)OC[C@H]1O[C@@H](n2cc(F)c(=O)[nH]c2=O)C[C@@H]1O", "class 1"),
    ("Cc1ncc([N+](=O)[O-])n1CCOC(=O)c1ccccc1C(=O)OCCn1c([N+](=O)[O-])cnc1C", "class 0"),
    ("CCOC(=O)CN(COC(=O)c1ccccc1)C(=O)c1ccccc1", "class 1"),
    ("CC(=O)OCOC(=O)N(C)/N=N/c1ccc(C)cc1", "class 1"),
    ("CCCCCCCCCCCCOC(=O)[C@H](Cc1ccccc1)NC(=O)CN.Cl", "class 0"),
]

Switching to the query record.
Exam item: # TODO verify half-life < 1 h strictly for this compound: CSCOC(=O)[C@@]1(O)CC[C@H]2[C@@H]3CCC4=CC(=O)CC[C@]4(C)[C@H]3[C@@H](O)C[C@@]21C
Marked response: class 0

====

The following molecules are listed with their measured t1/2 values.
Tested on: Plasma
Assay: Half life in human plasma
Format: ADME, cell-free
Quick reminder: number only, in h, skip the unit.

# molecule, t1/2 (h)
measured = [
    ("COC(=O)[C@H](Cc1ccc(OC(C)=O)c(OC(C)=O)c1)NC(=O)CCCCC(=O)N[C@@H](Cc1ccc(OC(C)=O)c(OC(C)=O)c1)C(=O)OC", 0.13),
    ("CC(C)[N+](C)(CCOC(=O)C1c2ccccc2Oc2ccccc21)C(C)C", 6.17),
    ("COC(=O)[C@H](Cc1ccc(OC(C)=O)c(OC(C)=O)c1)NC(=O)CCCC(=O)N[C@@H](Cc1ccc(OC(C)=O)c(OC(C)=O)c1)C(=O)OC", 1.05),
    ("CC(C)C[C@H](NC(=O)[C@H](Cc1ccccc1)NC(=O)CNC(=O)CNC(=O)[C@@H](N)Cc1ccc(O)cc1)C(=O)O", 13.5),
]

Exam item: Please report the recorded t1/2 for CC(C)[C@H](N)C(=O)OCCOCn1cnc2c(=O)[nH]c(N)nc21 (stereo in doubt; 167) .
Marked response: 7.13

Exam item: Report t1/2 for COC(=O)[C@H](Cc1ccc(OC(C)=O)c(OC(C)=O)c1)NC(=O)CCC(=O)N[C@@H](Cc1ccc(OC(C)=O)c(OC(C)=O)c1)C(=O)OC please.
Marked response: 0.232

Exam item: Returns the measured t1/2 for the input molecule. Input: COC(=O)[C@H](Cc1ccc(OC(C)=O)c(OC(C)=O)c1)NC(=O)N[C@@H](Cc1ccc(OC(C)=O)c(OC(C)=O)c1)C(=O)OC
Marked response: 1.698

====

Experiment: Half life in human plasma
Type: ADME, cell-free
parameter: half-life

# chemical_string, recorded_result
measured = [
    ("CCOC(=O)CN(C)C(=O)OCOC(=O)c1ccccc1", "0.41 min"),
    ("C[C@@H](C(=O)OCCn1ccnc1)c1ccc(-c2ccccc2)c(F)c1", "18 min"),
    ("CCCCOC(=O)[C@H](Cc1ccccc1)NC(=O)CN.Cl", "11.5 min"),
    ("C[C@@H](C(=O)OCC(=O)N(C)C)c1ccc(-c2ccccc2)c(F)c1", "1.1 min"),
    ("CCN(CC)C(=O)COC(=O)[C@@H](C)c1ccc(-c2ccccc2)c(F)c1", "2.6 min"),
    ("CN(CC(=O)O)C(=O)[C@@H](N)CCC(=O)OCc1ccccc1", "73.2 min"),
    ("Cc1cn([C@H]2C=C[C@@H](COC(=O)CN3CCN(c4cc5c(cc4F)c(=O)c(C(=O)O)cn5C4CC4)CC3)O2)c(=O)[nH]c1=O", "240 min"),
    ("CC(=O)Oc1ccc(CCNC(=O)CCCC[C@@H]2CCSS2)cc1OC(C)=O", "10.3 min"),
    ("C[C@H](NC(=O)[C@H](N)CC(=O)OCc1ccc([N+](=O)[O-])cc1)C(=O)O", "7.2 min"),
]

Now look at this entry.
Exam item: Which half-life value is on record for Cc1ncc([N+](=O)[O-])n1CCOC(=O)CCCCC(=O)OCCn1c([N+](=O)[O-])cnc1C ?
Marked response: 16.8 min

====

Assay: Half life in human plasma
Type: ADME, cell-free
Below, each of the compounds is paired with its reported half-life value.
Output spec: scalar in min, unitless text.

Recorded half-life, per entry:
# compound, half-life (min)
rows = [
    ("CCCCCCCCCCCC(=O)Oc1c(-c2ccc(O)c(O)c2)oc2cc(O)cc(O)c2c1=O", 73.2),
    ("CC(=O)OCOC(=O)N(C)/N=N/c1ccc(C#N)cc1", 7),
    ("CCOC(=O)[C@H](C)c1ccc(CC(C)C)cc1", 5580),
    ("CC(C)(C)C(=O)OCN(c1ccc([N+](=O)[O-])cc1Oc1ccccc1)S(C)(=O)=O", 102),
    ("CCN(CC)CC(=O)OCCn1c([N+](=O)[O-])cnc1C.Cl", 33.6),
]

Exam item: Could you share which half-life value was measured for COc1ccc2cc([C@H](C)C(=O)OCN(C)C(=O)c3ccccc3)ccc2c1 ?
Marked response: 72

Exam item: Query (compound): CCCCC/C=C\C/C=C\C/C=C\CCCCC(=O)OCn1cnc2c1c(=O)n(C)c(=O)n2C ; field requested: half-life
Marked response: 27.3

Exam item: Can you share its half-life? I mean this compound: Cc1cn([C@H]2C=C[C@@H](COC(=O)CNC(=O)c3ccncn3)O2)c(=O)[nH]c1=O
Marked response: 60

Exam item: For the compound shown here, CCC[C@@H]1O[C@@H]2C[C@H]3[C@@H]4C[C@H](F)C5=CC(=O)CC[C@]5(C)[C@@]4(F)[C@@H](O)C[C@]3(C)[C@]2(S[C@@H]2CCOC2=O)O1 , give the reported half-life.
Marked response: 5

Exam item: Reported half-life for Cc1cn([C@H]2C=C[C@@H](COC(=O)CN3CCNCC3)O2)c(=O)[nH]c1=O : what is it?
Marked response: 20

Exam item: // half-life lookup, key: CN(C)Cc1cccc(C(=O)OCCOCn2cnc3c(=O)[nH]c(N)nc32)c1
Marked response: 7

Exam item: What value of half-life has been recorded for this entry: CCCC(=O)Oc1c(-c2ccc(O)c(O)c2)oc2cc(O)cc(O)c2c1=O
Marked response: 63

Exam item: Quick one: half-life of CCOC(=O)c1ccc(/N=N/N(C)C(=O)OCOC(C)=O)cc1 ?
Marked response: 12

Exam item: Need half-life, item CCOC(=O)CNC(=O)OCOC(=O)C(C)(C)Oc1ccc(Cl)cc1
Marked response: 1.63

Exam item: I'd like to know its half-life. The compound in question is CCOC(=O)CNC(=O)OCOC(=O)Cc1ccccc1Nc1c(Cl)cccc1Cl
Marked response: 4.17

Exam item: For the compound shown here, CCN(CC)Cc1ccc(C(=O)OCCOCn2cnc3c(=O)[nH]c(N)nc32)cc1 , give the reported half-life.
Marked response: 17

Exam item: Field request: half-life | item: COC(=O)[C@@H]1CCCN1C(=O)OCOC(=O)c1ccccc1
Marked response: 3.48

Exam item: Item Cc1nccn1CCOC(=O)[C@H](C)c1ccc(-c2ccccc2)c(F)c1 has what recorded half-life?
Marked response: 38

Exam item: State the recorded half-life for this entry: CCC(=O)O[C@]1(C(=O)OCCl)CC[C@H]2[C@@H]3CCC4=CC(=O)CC[C@]4(C)[C@H]3[C@@H](O)C[C@@]21C
Marked response: 318

Exam item: Entry under review: CC(C)[C@H](N)C(=O)OCCOCn1cnc2c(=O)[nH]c(N)nc21 (stereo in doubt; 160) . Reported half-life?
Marked response: 312

Exam item: # lookup: half-life of O=C(OC[C@H]1O[C@@H](n2cnc3c(NC4CCCC4)ncnc32)[C@H](O)[C@@H]1O)C1CCCCC1
Marked response: 45

Exam item: Record request: half-life value, item CCOC(=O)CSCC(=O)[C@@]12OC(C)(C)O[C@@H]1C[C@H]1[C@@H]3C[C@H](F)C4=CC(=O)C=C[C@]4(C)[C@@]3(F)[C@@H](O)C[C@@]12C
Marked response: 24

====

Experiment: Half life in human plasma
Assay type: ADME, cell-free
parameter: half-life (min)
Give the value, in units of min, as a plain number.

# chemical_string, measurement_units, half-life
records = [
    ("CC(C)C(=O)Oc1ccc2c3c1O[C@H]1C(=O)CC[C@@]4(O)[C@@H](C2)N(CC2CC2)CC[C@]314", "min", 24.6),
    ("CCOC(=O)CN(C)C(=O)OCN(c1ccc([N+](=O)[O-])cc1Oc1ccccc1)S(C)(=O)=O", "min", 2950),
    ("CCOC(=O)c1ccc(/N=N/N(C)C(=O)OCOC(=O)c2ccccc2)cc1", "min", 47),
    ("CC(C)OC(=O)[C@@H](N)Cc1ccc(O)c(O)c1", "min", 238),
]

Then there is this compound:
Exam item: Looking for the measured half-life of O=C(O[C@H]1C[C@H](n2cc(F)c(=O)[nH]c2=O)O[C@@H]1CO)[C@@H]1CCCN1 , can you help?
Marked response: 13.8

Attribution: ChEMBL document CHEMBL1821652
